Cited source for all entries: patent US20150064204A1

This section presents binders with their documented EC50 values.
- target_under_test: T1, human GITR (human, UniProt Q9Y5U5 26-241)
- T1 construct: also called TNFRSF18; Glucocorticoid-induced TNFR-related gene
- T1 sequence: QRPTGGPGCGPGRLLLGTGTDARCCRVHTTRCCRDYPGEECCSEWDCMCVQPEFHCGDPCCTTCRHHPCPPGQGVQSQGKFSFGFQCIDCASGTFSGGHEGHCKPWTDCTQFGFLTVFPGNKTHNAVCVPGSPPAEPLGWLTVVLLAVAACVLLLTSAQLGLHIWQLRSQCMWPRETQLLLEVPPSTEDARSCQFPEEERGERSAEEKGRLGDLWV
- experiment_summary: flow cytometry on activated human T cells
State the answer as a number, implicitly in µg/mL.

Consider the reported EC50 for these binders:
9H6v3 (antibody, human IgG1, kappa, V domains shown, Engineered variant; also called Ab46; SS-13806) VH: QVQLVESGGGVVQPGRSLRLSCVASGFTFSSYGMHWIRQAPGKGLEWVAVIWYEGSNKYYAESVKGRFTISRDNSKNTLYLQMNSLRAEDTAVYYCARGGRLGKDYYSGMDVWGQGTTVTVSS VL: DIQMTQSPSSLSASVGDRVTITCRASQGIRNDLGWYQQKPGKAPKRLIYATSSLQSGVPSRFSGSGSGTEFTLTISSLQPEDFATYYCLQHNTYPWTFGQGTKVEIKR : 0.09
41G5v1 (antibody, human IgG1, kappa, V domains shown, Engineered variant; also called Ab55; SS-16952) VH: QVQLVESGGGVVQPGRSLRLSCAASGFTFSSYGMHWVRQAPGKGLEWVAVIWYPGSNKYYADSVKGRFTISRDNSKNTLYLQMNSLRAEDTAVYYCARGGELGRYYYYGMDVWGQGTTVTVSS VL: DIQMTQSPSSLSASVGDRVTVTCRASQGIRNDLGWYQQKPGKAPKLLIYAASSLQSGVPSRFSGSGSGTEFTLTISSLQPEDFATYYCLQHNNYPWTFGQGTKVDIKR : 0.06

Attention now shifts to the item below.
Entry under test: 41G5v3 (antibody, human IgG1, kappa, V domains shown, Engineered variant; also called Ab57; SS-16953) VH: QVQLVESGGGVVQPGRSLRLSCAASGFTFSSYGMHWVRQAPGKGLEWVAVIWYPGSNKYYADTVKGRFTISRDNSKNTLYLQMNSLRAEDTAVYYCARGGELGRYYYYGMDVWGQGTTVTVSS VL: DIQMTQSPSSLSASVGDRVTVTCRASQGIRNDLGWYQQKPGKAPKRLIYAASSLQSGVPSRFSGSGSGTEFTLTISSLQPEDFATYYCLQHNNYPWTFGQGTKVDIKR . Its EC50 was 0.06
